Tested On: LmjIPCS (inositol phosphorylceramide synthase from L. major) (Leishmania major, UniProt E9AFX2)
Sequence (E9AFX2 whole entry): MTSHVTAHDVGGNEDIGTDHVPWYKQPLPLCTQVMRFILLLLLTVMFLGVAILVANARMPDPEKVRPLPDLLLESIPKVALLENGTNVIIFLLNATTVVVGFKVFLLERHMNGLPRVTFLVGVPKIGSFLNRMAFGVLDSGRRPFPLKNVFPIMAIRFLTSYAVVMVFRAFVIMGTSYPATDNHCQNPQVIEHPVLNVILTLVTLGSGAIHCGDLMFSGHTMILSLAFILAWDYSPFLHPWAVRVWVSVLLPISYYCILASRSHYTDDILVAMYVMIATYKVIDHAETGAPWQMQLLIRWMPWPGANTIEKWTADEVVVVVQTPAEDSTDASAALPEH
Test Summary: biochemical
Assay type: biochemical
Catalogue of molecules with associated 20mM inhibition LmjIPCS
Measured Quantity: 20mM inhibition LmjIPCS (%)

[[record]]
molecule = "CC[C@H](C)C(=O)O[C@H]1C[C@@H](C)C=C2C=C[C@H](C)[C@H](CC[C@@H]3C[C@@H](O)CC(=O)O3)[C@H]21"
measured_quantity = "20mM inhibition LmjIPCS"
observed_result = 41

[[record]]
molecule = "CCN(CC)Cc1cc(Nc2ccnc3cc(Cl)ccc23)ccc1O"
measured_quantity = "20mM inhibition LmjIPCS"
observed_result = 59

[[record]]
molecule = "C=C[C@H]1C[N@@]2CC[C@H]1C[C@@H]2[C@@H](O)c1ccnc2ccc(OC)cc12"
measured_quantity = "20mM inhibition LmjIPCS"
observed_result = 55

[[record]]
molecule = "Cc1scc2c1N(C(=O)CN1CCN(C)CC1)c1ccccc1NC2=O [TELENZEPINE]"
measured_quantity = "20mM inhibition LmjIPCS"
observed_result = 35

[[record]]
molecule = "CC(N)C(=O)OC(C)(C)Cc1ccc(Cl)cc1 (centres unmarked) [ALAPROCLATE]"
measured_quantity = "20mM inhibition LmjIPCS"
observed_result = 36

[[record]]
molecule = "CN(C)CCCN1c2ccccc2Sc2ccccc21"
measured_quantity = "20mM inhibition LmjIPCS"
observed_result = 77

[[record]]
molecule = "CCCC(C)(COC(N)=O)COC(=O)NC(C)C (centres unmarked)"
measured_quantity = "20mM inhibition LmjIPCS"
observed_result = 52

[[record]]
molecule = "CCC(Cc1c(I)cc(I)c(N)c1I)C(=O)O (centres unmarked)"
measured_quantity = "20mM inhibition LmjIPCS"
observed_result = 7.62

[[record]]
molecule = "CC(=O)N1CCN(c2ccc(OCC3COC(Cn4ccnc4)(c4ccc(Cl)cc4Cl)O3)cc2)CC1 (centres unmarked)"
measured_quantity = "20mM inhibition LmjIPCS"
observed_result = 69

[[record]]
molecule = "Cc1cc(O)ccc1Cl"
measured_quantity = "20mM inhibition LmjIPCS"
observed_result = 49

[[record]]
molecule = "C[N+]12CCC(CC1)C(OC(=O)C(O)(c1ccccc1)c1ccccc1)C2 (centres unmarked) [CLIDINIUM BROMIDE]"
measured_quantity = "20mM inhibition LmjIPCS"
observed_result = 54

[[record]]
molecule = "C[C@H](N)[C@H](O)c1cccc(O)c1"
measured_quantity = "20mM inhibition LmjIPCS"
observed_result = 58

[[record]]
molecule = "CC(=O)OCC1=C(C(=O)O)N2C(=O)[C@@H](NC(=O)Cc3cccs3)[C@H]2SC1"
measured_quantity = "20mM inhibition LmjIPCS"
observed_result = 55

[[record]]
molecule = "CC(=O)N[C@@H]1[C@@H](O)[C@H](O)[C@@H](CO)O[C@H]1O"
measured_quantity = "20mM inhibition LmjIPCS"
observed_result = -19


---

Catalogue of compounds with associated 10mM inhibition L. major
System: L. major (FV1) promastigotes
Test Summary: Antipromastigote resazurin assay, L. major (FV1) wild type
Format: cell-based, Leishmania major
Experimental Parameters: NINDS set screen against L. major promastigotes, single concentration printed as 10mM
Measured Quantity: 10mM inhibition L. major (%)

[[record]]
compound = "CCCCCCCCNC(C)C(O)c1ccc(SC(C)C)cc1 (stereo not shown) [suloctidil 15, suloctidil, reference compound]"
measurement_qualifier = "="
observed_result = 74

[[record]]
compound = "Cc1cc(C(C)(C)C)c(O)c(C)c1CC1=NCCN1"
measurement_qualifier = "<"
observed_result = 5

[[record]]
compound = "CCCC1O[C@@H]2C[C@H]3[C@@H]4CCC5=CC(=O)C=C[C@]5(C)[C@H]4[C@@H](O)C[C@]3(C)[C@]2(C(=O)CO)O1 (stereo partly shown) [BUDESONIDE]"
measurement_qualifier = "<"
observed_result = 5

[[record]]
compound = "CN(C)CCCN1c2ccccc2Sc2ccc(Cl)cc21 [chlorpromazine 3, chlorpromazine, reference compound]"
measurement_qualifier = "="
observed_result = 76

[[record]]
compound = "N=C1C=CC(=C(c2ccc(N)cc2)c2ccc(N)cc2)C=C1"
measurement_qualifier = "="
observed_result = 75

[[record]]
compound = "CC(CN(C)C)CN1c2ccccc2Sc2ccccc21 (stereo not shown)"
measurement_qualifier = "<"
observed_result = 5

[[record]]
compound = "CCOC(=O)C1=C(COCCN)NC(C)=C(C(=O)OC)C1c1ccccc1Cl (stereo not shown) [amlodipine 2, amlodipine, reference compound]"
measurement_qualifier = "="
observed_result = 62

[[record]]
compound = "CC(NCCC(c1ccccc1)c1ccccc1)c1ccccc1 (stereo not shown) [fendiline 6, fendiline, reference compound]"
measurement_qualifier = "="
observed_result = 74

[[record]]
compound = "CC1=C2C(=CO[C@H](C)[C@H]2C)C(O)=C(C(=O)O)C1=O"
measurement_qualifier = "<"
observed_result = 5

[[record]]
compound = "CCN(CCCc1ccccc1)CCCc1ccccc1"
measurement_qualifier = "<"
observed_result = 5

[[record]]
compound = "CN1CCN(CCCN2c3ccccc3Sc3ccc(C(F)(F)F)cc32)CC1 [trifluoperazine 16, trifluoperazine, reference compound]"
measurement_qualifier = "="
observed_result = 67

[[record]]
compound = "CN1CCc2c(c3ccccc3n2Cc2ccccc2)C1 [MEBHYDROLIN]"
measurement_qualifier = "<"
observed_result = 5

[[record]]
compound = "Cc1nnc(NS(=O)(=O)c2ccc(N)cc2)s1 [sulfamethizole 14, sulfamethizole, reference compound]"
measurement_qualifier = "="
observed_result = 68

